Where do the numbers come from? From ChEMBL document CHEMBL1126778.

Test system: Mus musculus
TEST DESCRIPTION: Retention time in (R)-PIA) induced avoidance test (performed in mice) for antagonistic activity after peroral administration of 20 mg/kg
Assay type: functional, organism-based
Parameters: dose 20 mg/kg
Recorded Retention time by entry
Please reply with the bare figure in s and do not write the unit itself.

INSERT INTO assay_data (smi, system_name, unit_of_measure, measured_value) VALUES
  ('CCCn1c(=O)c2nc(C3CCCC3)[nH]c2n(CCc2ccc(NC(C)=O)cc2)c1=O', 'Mus musculus', 's', 32.2),
  ('CCCn1c(=O)c2nc(C34CC5CC(CC3C5)C4)[nH]c2n(CCc2ccc(N)cc2)c1=O', 'Mus musculus', 's', 98.7),
  ('CCCn1c(=O)c2c(nc(/C=C/c3ccc(OC)c(OC)c3)n2C)n(CCC)c1=O', 'Mus musculus', 's', 92.4);

With those in mind, consider the next compound.
Inquiry: Query Retention time for COc1cc(/C=C/c2nc3c(c(=O)n(C)c(=O)n3C)n2C)cc(OC)c1OC
Reply text: 74.9

====

System: Mus musculus
TEST DESCRIPTION: Acquisition time in (R)-PIA) induced avoidance test (performed in mice) for antagonistic activity after peroral administration of 5 mg/kg
Type: functional
RECORDED CONDITIONS: route oral
Cut-off 20 s on Acquisition time: below means YES, at or above means NO.

Before answering, review these 3 worked examples.
INSERT INTO results (compound, classification) VALUES
  ('CCCn1c(=O)c2[nH]c(C3CCCC3)nc2n(CCC)c1=S', 'NO'),
  ('CCCn1c(=O)c2nc(C(C3CC3)C3CC3)[nH]c2n(CCC)c1=O', 'NO'),
  ('CCCn1c(=O)c2nc(C34CC5CC(CC(C5)C3)C4)[nH]c2n(CCC)c1=O', 'YES');

Inquiry: Please let me know if CCCn1c(=O)c2nc(C3CC4CCCC4C3)[nH]c2n(CCC)c1=O (stereo not drawn) shows Acquisition time below 20 s.
Reply text: NO

Inquiry: Please let me know if COc1cc(/C=C/c2nc3c(c(=O)n(C)c(=O)n3C)n2C)cc(OC)c1OC shows Acquisition time below 20 s.
Reply text: NO

Inquiry: # TODO verify Acquisition time < 20 s strictly for this compound: CC(C)Cn1c(=O)n(C)c(=O)c2[nH]c(C(C3CC3)C3CC3)nc21
Reply text: YES

Inquiry: Is Acquisition time strictly under 20 s for the entry CCCn1c(=O)c2nc(C34CC5CC(CC3C5)C4)[nH]c2n(CCC)c1=S ?
Reply text: YES

Inquiry: Quick check: Acquisition time of CCCN1C(=O)N2C[C@@H](CC)N=C2c2[nH]c(C34CC5CC(CC3C5)C4)nc21 under 20 s?
Reply text: NO

====

System: Mus musculus
TEST DESCRIPTION: Retention time in (R)-PIA) induced avoidance test (performed in mice) for antagonistic activity after p.o. administration of 1.25 mg/kg
Type: functional, organism-based
Design: dose 1.25 mg/kg
PROPERTY LABEL: log10 of Retention time (log10 of the value in s)
Scale: log10; quantity: Retention time; unit before log: s

Consider the reported log10 of Retention time for these compounds:
INSERT INTO results (compound, system_name, measured_value) VALUES
  ('CCCn1c(=O)c2c(nc(/C=C/c3ccc(OC)c(OC)c3)n2C)n(CCC)c1=O', 'Mus musculus', 1.81),
  ('CC(C)Cn1c(=O)n(C)c(=O)c2[nH]c(C(C3CC3)C3CC3)nc21', 'Mus musculus', 2.54),
  ('CCCN1C(=O)N2CC(CC)N=C2c2[nH]c(C34CC5CC(CC3C5)C4)nc21 (racemic)', 'Mus musculus', 2.36),
  ('CCCn1c(=O)c2nc(C34CC5CC(CC3C5)C4)[nH]c2n(CCc2ccc(N)cc2)c1=O', 'Mus musculus', 2.23),
  ('COc1cc(/C=C/c2nc3c(c(=O)n(C)c(=O)n3C)n2C)cc(OC)c1OC', 'Mus musculus', 1.36);

Inquiry: Tell me log10 of Retention time reported for CCCn1c(=O)c2[nH]c(C3CCCC3)nc2n(CCC)c1=S
Reply text: 1.72

====

// reported Acquisition time for each item listed
System: Rattus norvegicus
TEST DESCRIPTION: Acquisition time in Scopolamine induced avoidance test (performed in rat) for antagonistic activity after p.o. administration of 5 mg/kg
Format: functional
RECORDED CONDITIONS: route oral
Please answer in the form of a number followed by its unit of measurement.

Worked examples follow.
INSERT INTO results (molecule, system_name, measured_value) VALUES
  ('CCCn1c(=O)c2nc(C3CC4CCCC4C3)[nH]c2n(CCC)c1=O (stereo not given)', 'Rattus norvegicus', '11.1 s'),
  ('CCCn1c(=O)c2c(nc(/C=C/c3ccc(OC)c(OC)c3)n2C)n(CCC)c1=O', 'Rattus norvegicus', '24.4 s'),
  ('CC(C)Cn1c(=O)n(C)c(=O)c2[nH]c(C(C3CC3)C3CC3)nc21', 'Rattus norvegicus', '11.5 s'),
  ('CCCn1c(=O)c2nc(C3CCC(=O)C3)[nH]c2n(CCc2ccc(N)cc2)c1=O (stereo not given)', 'Rattus norvegicus', '10.2 s');

Inquiry: Please report the measured Acquisition time for CCCn1c(=O)c2nc(C3CCCC3)[nH]c2n(CCc2ccc(NC(C)=O)cc2)c1=O
Reply text: 15.9 s

Inquiry: Using known records, supply Acquisition time for CCCn1c(=O)c2nc(C(C3CC3)C3CC3)[nH]c2n(CCC)c1=S
Reply text: 10.2 s

Inquiry: Return Acquisition time for the following molecule: CCCn1c(=O)c2nc(C34CC5CC(CC(C5)C3)C4)[nH]c2n(CCC)c1=O
Reply text: 11.7 s

Inquiry: Could you please provide reported Acquisition time for CCCn1c(=O)c2nc(C34CC5CC(CC3C5)C4)[nH]c2n(CCC)c1=S ? Thanks!
Reply text: 24.9 s

Inquiry: Input COc1cc(/C=C/c2nc3c(c(=O)n(C)c(=O)n3C)n2C)cc(OC)c1OC , output reported Acquisition time.
Reply text: 11.3 s

Inquiry: Indicate its recorded Acquisition time; the molecule in question is CCCn1c(=O)c2nc(C3CCCC3)[nH]c2n(CCc2ccc(N)cc2)c1=O
Reply text: 12.3 s

====

Tested on: Mus musculus
TEST DESCRIPTION: Retention time in (R)-PIA) induced avoidance test (performed in mice) for antagonistic activity after p.o. administration of 1.25 mg/kg
Type: functional, organism-based
Set-up: dose 1.25 mg/kg
PROPERTY LABEL: Retention time (s)
Value expressed in s; do not type the unit.

INSERT INTO assay_data (compound, measured_value) VALUES
  ('CCCn1c(=O)c2nc(C3CCCC3)[nH]c2n(CCc2ccc(NC(=O)C(C)C)cc2)c1=O', 171),
  ('CCCn1c(=O)c2nc(C3CC4CCCC4C3)[nH]c2n(CCC)c1=O (centres undefined)', 317),
  ('CCCN1C(=O)N2C[C@@H](CC)N=C2c2[nH]c(C34CC5CC(CC3C5)C4)nc21', 326);

Inquiry: Give the reported Retention time for this compound. CCCn1c(=O)c2nc(C3CCCC3)[nH]c2n(CCc2ccc(NC(C)=O)cc2)c1=O
Reply text: 20

====

Test system: Mus musculus
TEST DESCRIPTION: Acquisition time in (R)-PIA) induced avoidance test (performed in mice) for antagonistic activity after peroral administration of 0.02 mg/kg
RECORDED CONDITIONS: route oral
PROPERTY LABEL: Acquisition time (s)
Just the number please, in s, no unit attached.

Consider the worked cases shown below.
INSERT INTO results (compound, property_label, unit_of_measure, measured_value) VALUES
  ('CCCn1c(=O)c2nc(C3CCCC3)[nH]c2n(CCc2ccc(NC(=O)C(C)C)cc2)c1=O', 'Acquisition time', 's', 6),
  ('CCCn1c(=O)c2nc(C3CCC(=O)C3)[nH]c2n(CCc2ccc(N)cc2)c1=O (centres undefined)', 'Acquisition time', 's', 14.2);

Inquiry: Assign Acquisition time to the following record: CCCn1c(=O)c2nc(C3CCCC3)[nH]c2n(CCc2ccc(NC(C)=O)cc2)c1=O
Reply text: 12.2

Inquiry: Identify measured Acquisition time associated with CCCn1c(=O)c2nc(C3CC4CCCC4C3)[nH]c2n(CCC)c1=O (centres undefined)
Reply text: 13.4

Inquiry: Assign Acquisition time to the following record: CCCN1C(=O)N2C[C@H](CC)N=C2c2[nH]c(C34CC5CC(CC3C5)C4)nc21
Reply text: 14.3

Inquiry: # return recorded Acquisition time for entry CCCN1C(=O)N2CC(CC)N=C2c2[nH]c(C34CC5CC(CC3C5)C4)nc21 (racemic)
Reply text: 23
